Test system: UCLA-SO-M14
assay_summary: 3 day proliferation assay, B-Raf V600E mutant cancer cell line
Assay type: cell-based
test_conditions: UCLA-SO-M14, Skin, BRAF V600E; read-out: Mean gIC50
quantity: IC50

Problem: Give its IC50 value. Item: CC(C)(C)c1nc(-c2cccc(NS(=O)(=O)c3c(F)cccc3F)c2F)c(-c2ccnc(N)n2)s1 [Example 58a]
Solution: < 100 nM

###

Each item that follows carries a reported IC50.
target: BRAFV600E full-length (amino acids 2-766) (Homo sapiens, UniProt P15056, V600E)
Construct: His6-tagged BRAFV600E full-length (amino acids 2-766); His6; made in house; host or cells: baculovirus expression system (insect cells)
Sequence (P15056 2-766 V600E): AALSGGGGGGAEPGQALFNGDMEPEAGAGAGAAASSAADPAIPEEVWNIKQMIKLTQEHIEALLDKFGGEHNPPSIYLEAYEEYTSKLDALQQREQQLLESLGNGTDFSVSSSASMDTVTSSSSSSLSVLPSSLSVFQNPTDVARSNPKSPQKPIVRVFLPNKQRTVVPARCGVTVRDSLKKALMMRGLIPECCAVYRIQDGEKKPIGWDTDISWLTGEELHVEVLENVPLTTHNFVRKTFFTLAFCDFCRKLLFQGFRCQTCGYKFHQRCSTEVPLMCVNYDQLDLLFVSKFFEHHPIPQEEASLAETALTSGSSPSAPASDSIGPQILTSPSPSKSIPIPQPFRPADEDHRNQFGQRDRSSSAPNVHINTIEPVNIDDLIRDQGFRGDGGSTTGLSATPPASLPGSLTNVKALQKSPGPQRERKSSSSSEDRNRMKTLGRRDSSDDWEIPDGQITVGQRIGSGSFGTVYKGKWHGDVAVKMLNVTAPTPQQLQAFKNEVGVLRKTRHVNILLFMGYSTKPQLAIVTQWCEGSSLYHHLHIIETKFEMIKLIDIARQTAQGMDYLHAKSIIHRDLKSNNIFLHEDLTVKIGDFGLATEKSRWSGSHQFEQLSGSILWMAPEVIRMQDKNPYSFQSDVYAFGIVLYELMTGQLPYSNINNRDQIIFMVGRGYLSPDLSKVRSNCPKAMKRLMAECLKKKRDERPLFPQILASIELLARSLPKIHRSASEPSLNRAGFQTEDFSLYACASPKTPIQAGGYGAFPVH
assay_summary: B-Raf Accelerated MEK ATPase assay (BRAMA)
Assay type: biochemical
test_conditions: B-Raf Activity, Table 1a; highest pIC50 for the one or more runs, categorized

Guide cases for IC50, answers given:
CC(C)c1nc(-c2cccc(NS(=O)(=O)c3c(F)cccc3F)c2F)c(-c2ccnc(N)n2)s1 < 100 nM
COc1ccc(F)cc1S(=O)(=O)Nc1cccc(-c2nc(C(C)C)sc2-c2ccnc(NCCS(C)(=O)=O)n2)c1 < 100 nM
CC(=O)NCCNc1nccc(-c2sc(C(C)C)nc2-c2ccc(F)c(NS(=O)(=O)c3c(F)cccc3F)c2)n1 < 100 nM

Problem: Give its IC50 value. Item: CC(C)(C)c1nc(-c2cccc(NS(=O)(=O)c3cc(F)ccc3F)c2F)c(-c2ccnc(NC3CCN(S(C)(=O)=O)CC3)n2)s1
Solution: < 100 nM

###

target: BRAFV600E full-length (amino acids 2-766) (Homo sapiens, UniProt P15056, V600E)
Construct: His6-tagged BRAFV600E full-length (amino acids 2-766); His6; made in house; host or cells: baculovirus expression system (insect cells)
assay_summary: B-Raf Accelerated MEK ATPase assay (BRAMA)
Assay type: biochemical
test_conditions: B-Raf pIC50, Table 1b; later runs, average pIC50 for the one or more runs, categorized
quantity: IC50

Guide cases for IC50, answers given:
COc1ccc(F)cc1S(=O)(=O)Nc1cccc(-c2nc(C(C)C)sc2-c2ccnc(NCC(C)C)n2)c1 31.6 to 1000 nM
C[C@H](O)CNc1nccc(-c2sc(C3CCOCC3)nc2-c2cccc(NS(=O)(=O)c3ccoc3)c2F)n1 ≤ 3.16 nM
CC(C)(C)c1nc(-c2c(F)ccc(NS(=O)(=O)c3cc(F)ccc3F)c2F)c(-c2ccncn2)s1 ≤ 3.16 nM
CC(C)(C)c1nc(-c2cccc(NS(=O)(=O)c3cc(F)ccc3F)c2F)c(-c2ccnc(NCCN3CCCC3=O)n2)s1 ≤ 3.16 nM
CC(C)c1nc(-c2ccc(F)c(NS(=O)(=O)c3cc(F)ccc3F)c2)c(-c2ccnc(NC3CCN(C(=O)OC(C)(C)C)CC3)n2)s1 31.6 to 1000 nM
CC(C)(C)c1nc(-c2cccc(NS(=O)(=O)c3ccco3)c2F)c(-c2ccnc(N)n2)o1 ≤ 3.16 nM

--- query ---
Problem: Give its IC50 value. Item: CC(C)(C)c1nc(-c2cccc(NS(=O)(=O)c3c(F)cccc3F)c2F)c(-c2ccnc(NC3CCS(=O)(=O)CC3)n2)s1
Solution: ≤ 3.16 nM

###

target: BRAFV600E full-length (amino acids 2-766) (Homo sapiens, UniProt P15056, V600E)
Construct: His6-tagged BRAFV600E full-length (amino acids 2-766); His6; made in house; host or cells: baculovirus expression system (insect cells)
assay_summary: B-Raf Accelerated MEK ATPase assay (BRAMA)
Type: biochemical
test_conditions: B-Raf Activity, Table 1a; highest pIC50 for the one or more runs, categorized
pIC50: −log10 of the molar value.
Each item that follows carries a reported pIC50.

Guide cases for pIC50, answers given:
compound	pIC50
CC(C)c1nc(-c2ccc(F)c(NS(=O)(=O)c3c(F)cccc3F)c2)c(-c2ccnc(NCCF)n2)s1 [Example 178]	> 7.00
COCC(C)Nc1nccc(-c2sc(C(C)C)nc2-c2ccc(F)c(NS(=O)(=O)c3c(F)cccc3F)c2)n1 (stereo not shown) [Example 162]	6.00 to 7.00
Nc1nccc(-c2scnc2-c2cccc(NS(=O)(=O)c3c(F)cccc3F)c2)n1 [Example 114]	6.00 to 7.00
Nc1nccc(-c2sc(C3CCC3)nc2-c2cccc(NS(=O)(=O)c3c(F)cccc3F)c2Cl)n1 [Example 72]	> 7.00
CC(C)CNc1nccc(-c2oc(N3CCCC3)nc2-c2cccc(NS(=O)(=O)c3c(F)cccc3F)c2)n1 [Example 111]	> 7.00
CC(C)c1nc(-c2ccc(F)c(NS(=O)(=O)c3cc(F)ccc3F)c2)c(-c2ccnc(NC3CCNCC3)n2)s1 [Example 125]	> 7.00

--- query ---
Problem: Give its pIC50 value. Item: CS(=O)(=O)CCNc1nccc(-c2sc(N3CCOCC3)nc2-c2ccc(F)c(NS(=O)(=O)c3c(F)cccc3F)c2)n1 [Example 202]
Solution: > 7.00
